Would you mind telling me the reported IC50 of each entry?
- Assayed target: phosphodiesterase isolated from cattle brain
- Test: phosphodiesterase inhibition, enzyme isolated from cattle brain
- Recorded conditions: inhibitor concentration giving 50% decrease of enzyme activity, 20 minutes incubation, read-out: 150(μmoles) cattle brain

// sample CCC12C=C(COC(C)=O)n3c4c(c5ccccc53)CCN(CC(O)C1)C42 (stereo not drawn) [compound 1041, 18β-Hydroxy-apovincaminol acetate] , its IC50 was 100 µM

// sample CCC12C=CCN3CCc4c(n(c5cc([N+](=O)[O-])ccc45)C(COC(=O)c4cc(OC)c(OC)c(OC)c4)=C1)C32 (stereo not drawn) , its IC50 was 5 µM

// sample CCC12C=C(COC(=O)c3cc(OC)c(OC)c(OC)c3)n3c4c(c5ccccc53)CCN(CC(O)C1)C42 (stereo not drawn) , its IC50 was 5 µM

// provenance: patent US4680397A
